Values compiled from patent US20050032754A1.

Target: Bovine thymus 1α,25-dihydroxyvitamin D3 receptor (VDR) (Bos taurus)
Sequence (Q28037 whole entry): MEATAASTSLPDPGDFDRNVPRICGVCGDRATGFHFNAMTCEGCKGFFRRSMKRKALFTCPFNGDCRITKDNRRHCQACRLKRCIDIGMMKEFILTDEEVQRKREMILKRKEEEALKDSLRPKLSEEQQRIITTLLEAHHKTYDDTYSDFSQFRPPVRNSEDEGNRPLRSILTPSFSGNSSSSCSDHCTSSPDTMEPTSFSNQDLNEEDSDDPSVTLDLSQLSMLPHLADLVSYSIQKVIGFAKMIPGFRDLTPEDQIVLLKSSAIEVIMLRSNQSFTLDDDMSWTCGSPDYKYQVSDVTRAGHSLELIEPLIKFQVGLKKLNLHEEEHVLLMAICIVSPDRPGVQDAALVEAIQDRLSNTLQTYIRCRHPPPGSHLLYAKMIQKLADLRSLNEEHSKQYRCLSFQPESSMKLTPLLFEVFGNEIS
Details: relative value, 1α,25-dihydroxyvitamin D3 taken as 100; X=(y/x)×100 from concentrations inhibiting 50% of [3H]-1α,25-dihydroxyvitamin D3 binding (0.1 nM) to VDR
valueType: VDR binding property

# annotated cases, reported VDR binding property shown
molecule	observed
C=C1/C(=C/C=C2\CCCC3(C)C2CCC3[C@H](C)CCCC(C)(C)O)C[C@@H](O)[C@@H](C)[C@@H]1O (stereo partly shown) [Example 1]	8.6
C=C1/C(=C/C=C2\CCCC3(C)C2CCC3[C@H](C)CCCC(C)(C)O)C[C@H](O)[C@H](C)[C@@H]1O (stereo partly shown) [Example 6]	0.013
C=C1C(=CC=C2CCCC3(C)C2CCC3C(C)CCCC(C)(C)O)CC(O)C(C)C1O (stereo not shown) [Example 11]	0.8

[P] C=C1/C(=C/C=C2\CCCC3(C)C2CCC3[C@@H](C)CCCC(C)(C)O)C[C@@H](O)[C@@H](C)[C@@H]1O (stereo partly shown) [Example 9]
[Q] C=C1/C(=C/C=C2\CCCC3(C)C2CCC3[C@H](C)CCCC(C)(C)O)C[C@H](O)[C@@H](C)[C@@H]1O (stereo partly shown) [Example 5]
Query block: Please compare: P and Q . Report which one has the smaller VDR binding property value. Label of pick, please.
Result block: Q
(Q: 0.04, P: 45)

[1] C=C1/C(=C/C=C2\CCCC3(C)C2CCC3[C@@H](C)CCCC(C)(C)O)C[C@@H](O)[C@H](C)[C@H]1O (stereo partly shown) [Example 12]
[2] C=C1/C(=C/C=C2\CCCC3(C)C2CCC3[C@@H](C)CCCC(C)(C)O)C[C@H](O)[C@H](C)[C@@H]1O (stereo partly shown) [Example 14]
Query block: For the pair 1 and 2 , which entry has the numerically smaller recorded VDR binding property? Your answer should be the label attached to the chosen record.
Result block: 1

[P] C=C1/C(=C/C=C2\CCCC3(C)C2CCC3[C@@H](C)CCCC(C)(C)O)C[C@H](O)[C@H](C)[C@H]1O (stereo partly shown) [Example 16]
[Q] C=C1/C(=C/C=C2\CCCC3(C)C2CCC3[C@@H](C)CCCC(C)(C)O)C[C@@H](O)[C@H](C)[C@@H]1O (stereo partly shown) [Example 10]
Query block: Field: lower recorded VDR binding property (choose P or Q ) Write down the label attached to your selection.
Result block: P
(P: 0.08, Q: 1)

[A] C=C1/C(=C/C=C2\CCC[C@]3(C)[C@@H]([C@H](C)CCCC(C)(C)O)CC[C@@H]23)C[C@@H](O)[C@@H](C)[C@H]1O [Example 3]
[B] C=C1/C(=C/C=C2\CCCC3(C)C2CCC3[C@H](C)CCCC(C)(C)O)C[C@H](O)[C@@H](C)[C@H]1O (stereo partly shown) [Example 7]
Query block: Between A and B , which one shows the smaller VDR binding property number? # respond with the chosen item's label
Result block: B

[a] C=C1/C(=C/C=C2\CCCC3(C)C2CCC3[C@@H](C)CCCC(C)(C)O)C[C@H](O)[C@@H](C)[C@@H]1O (stereo partly shown) [Example 13]
[b] C=C1/C(=C/C=C2\CCCC3(C)C2CCC3[C@@H](C)CCCC(C)(C)O)C[C@H](O)[C@@H](C)[C@H]1O (stereo partly shown) [Example 15]
Query block: Quick one: lower VDR binding property, a or b ? Lab log: write the label of the selected item as the result.
Result block: b
